I'd be grateful if you could share measured IC50 for these entries.
Tested system: formaldehyde dehydrogenase (FDH) (Pseudomonas putida, UniProt P46154)
Construct: purchased Sigma-Aldrich
Sequence (P46154 whole entry): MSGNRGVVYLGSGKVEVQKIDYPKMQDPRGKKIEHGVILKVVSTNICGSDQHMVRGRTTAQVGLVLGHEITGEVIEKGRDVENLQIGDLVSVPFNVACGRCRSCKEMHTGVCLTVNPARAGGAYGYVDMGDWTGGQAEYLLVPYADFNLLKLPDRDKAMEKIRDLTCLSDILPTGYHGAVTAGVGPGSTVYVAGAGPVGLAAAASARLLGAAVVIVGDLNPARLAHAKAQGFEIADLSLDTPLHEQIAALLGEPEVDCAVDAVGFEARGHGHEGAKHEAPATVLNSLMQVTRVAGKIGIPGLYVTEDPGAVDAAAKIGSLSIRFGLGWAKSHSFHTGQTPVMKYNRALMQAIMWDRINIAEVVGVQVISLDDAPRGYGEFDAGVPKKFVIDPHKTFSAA
Experimental details: FDH coupling enzyme counterscreen
Format: biochemical
Test parameters: Table S1; FDH counterscreen; unit not in table, from Figure 2; read-out: qHTS Data: jmjd2e fdh IC50

Any idea what IC50 was measured for "O=C(O)c1cc(O)c(O)c(O)c1" ? 31.6 µM

Any idea what IC50 was measured for CN(C)C1C(=O)C(C(N)=O)=C(O)[C@@]2(O)C(=O)C3=C(O)c4c(O)cccc4[C@@](C)(O)C3[C@H](O)C12 (some centres unmarked) ? 3.55 µM

Any idea what IC50 was measured for "CCOc1ccc2ccccc2c1/C=N/NC(=O)CNC(=O)C(c1ccccc1)c1ccccc1" ? 10 µM

Any idea what IC50 was measured for "O=c1c(O)c(Br)ccc2c(Br)c(O)c(O)c(O)c12" ? 28.2 µM

Any idea what IC50 was measured for S=c1nc(C2COc3ccccc3O2)[nH][nH]1 (centres unmarked) ? 15.8 µM

* * *

Tested system: formaldehyde dehydrogenase (FDH) (Pseudomonas putida)
Construct: purchased Sigma-Aldrich
Experimental details: FDH coupling enzyme counterscreen
Format: biochemical
Test parameters: Table S1; FDH counterscreen
Recorded endpoint: qHTS Data: jmjd2e fdh CurveClass

As a guide, the following entries are already answered.
compound=COc1ccc(-n2c(C)cc(/C=N/Nc3nnc(C)n3N)c2C)cc1.Cl tested_system="formaldehyde dehydrogenase (FDH) (Pseudomonas putida)" recorded_endpoint="qHTS Data: jmjd2e fdh CurveClass" value="Poor quality curve"
compound="O=C(O)C(=O)O.S=C(NCC1CCCO1)N1CCN(Cc2ccccc2)CC1 (stereo not drawn)" tested_system="formaldehyde dehydrogenase (FDH) (Pseudomonas putida)" recorded_endpoint="qHTS Data: jmjd2e fdh CurveClass" value=Inactive
compound=O=c1c(O)c(-c2cc(O)c(O)c(O)c2)oc2cc(O)cc(O)c12 tested_system="formaldehyde dehydrogenase (FDH) (Pseudomonas putida)" recorded_endpoint="qHTS Data: jmjd2e fdh CurveClass" value=Inactive
compound="Oc1cc2c(cc1O)C1c3ccc(O)c(O)c3OCC1(O)C2 (stereo not drawn)" tested_system="formaldehyde dehydrogenase (FDH) (Pseudomonas putida)" recorded_endpoint="qHTS Data: jmjd2e fdh CurveClass" value=Inactive
compound=CN(C)S(=O)(=O)c1cccc(-n2sc3ccccc3c2=O)c1 tested_system="formaldehyde dehydrogenase (FDH) (Pseudomonas putida)" recorded_endpoint="qHTS Data: jmjd2e fdh CurveClass" value="Poor quality curve"

Which measured qHTS Data: jmjd2e fdh CurveClass belongs to "CCNc1nc(C(=O)O)nc(N2CCOCC2)n1" , tested on formaldehyde dehydrogenase (FDH) (Pseudomonas putida)? Inactive

Which measured qHTS Data: jmjd2e fdh CurveClass belongs to "Oc1ccc(CNc2ccccc2)c2cccnc12" , tested on formaldehyde dehydrogenase (FDH) (Pseudomonas putida)? Inactive

Which measured qHTS Data: jmjd2e fdh CurveClass belongs to "CC1=CC(=O)c2c(O)cccc2C1=O" , tested on formaldehyde dehydrogenase (FDH) (Pseudomonas putida)? Poor quality curve

Which measured qHTS Data: jmjd2e fdh CurveClass belongs to "Cc1nc(-c2coc3c(O)c(O)ccc3c2=O)cs1" , tested on formaldehyde dehydrogenase (FDH) (Pseudomonas putida)? Poor quality curve

* * *

I'd be grateful if you could share measured IC50 for these entries.
Tested system: JMJD2E (Homo sapiens, UniProt B2RXH2)
Sequence (B2RXH2 1-337): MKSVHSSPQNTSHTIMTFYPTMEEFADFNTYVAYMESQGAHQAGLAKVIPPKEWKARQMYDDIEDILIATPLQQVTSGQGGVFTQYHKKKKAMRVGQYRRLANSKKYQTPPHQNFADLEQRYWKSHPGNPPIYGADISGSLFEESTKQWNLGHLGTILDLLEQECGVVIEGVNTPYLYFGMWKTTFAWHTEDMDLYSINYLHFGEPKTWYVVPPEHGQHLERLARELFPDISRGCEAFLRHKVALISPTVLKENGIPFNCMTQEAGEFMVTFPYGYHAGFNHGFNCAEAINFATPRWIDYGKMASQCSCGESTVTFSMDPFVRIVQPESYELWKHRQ
Experimental details: MALDI-TOF MS demethylation assay, JMJD2E
Test parameters: read-out: MALDI-TOF Data: IC50; Table S1; 2 µM JMJD2E; unit not in table; ~ values are poorly fitted
Field format: number, assumed µM, no unit text.

Any idea what IC50 was measured for CN1CCN(Cc2cc(COCc3ccccc3)c3cccnc3c2O)CC1 [compound 4248346] ? 17.2

Any idea what IC50 was measured for COc1ccc(/C=C/C(=O)NC(=S)NNC(=O)c2cnccn2)cc1 [compound 26725781] ? 3.5

Any idea what IC50 was measured for C[C@@](Cc1ccc(O)c(O)c1)(NN)C(=O)O [compound 11113507] ? 5.6

Any idea what IC50 was measured for COc1cccc(/C=N/NC(=O)CNC(=O)COc2cccc(C)c2)c1O [compound 26660958] ? 10.2

Any idea what IC50 was measured for C=CCn1c(SCC(=O)c2ccc(O)c(O)c2)nnc1-c1cccnc1 [compound 26671532] ? 11.8

* * *

Tested system: formaldehyde dehydrogenase (FDH) (Pseudomonas putida, UniProt P46154)
Construct: purchased Sigma-Aldrich
Experimental details: FDH coupling enzyme counterscreen
Format: biochemical
Test parameters: Table S1; FDH counterscreen
Recorded endpoint: qHTS Data: jmjd2e fdh CurveClass

As a guide, the following entries are already answered.
compound=Cc1ccc(NC2=CC(=O)CC(C)(C)C2)c(N)c1 recorded_endpoint="qHTS Data: jmjd2e fdh CurveClass" value=Inactive
compound=Oc1ccc(NCc2ccccc2OCc2ccccc2F)cc1 recorded_endpoint="qHTS Data: jmjd2e fdh CurveClass" value="Poor quality curve"
compound="CN(C)C1C(=O)C(C(N)=O)=C(O)[C@@]2(O)C(=O)C3=C(O)c4c(O)cccc4[C@@](C)(O)C3CC12.Cl (stereo partly drawn)" recorded_endpoint="qHTS Data: jmjd2e fdh CurveClass" value="Poor quality curve"
compound=O=C1c2ccc(O)c(O)c2C(=O)c2c(O)ccc(O)c21 recorded_endpoint="qHTS Data: jmjd2e fdh CurveClass" value=Inactive
compound="S=c1nc(C2COc3ccccc3O2)[nH][nH]1 (stereo not drawn)" recorded_endpoint="qHTS Data: jmjd2e fdh CurveClass" value=-1.3

Now look at this entry.
Any idea what qHTS Data: jmjd2e fdh CurveClass was measured for "O=c1c(O)cccc2cc(O)c(O)c(O)c12" ? Poor quality curve

* * *

Tested system: JMJD2E (KDM4E) (Homo sapiens, UniProt B2RXH2)
Construct: The catalytic domain of human JMJD2E (residues 1–337); His6 (N); made in house; host or cells: E. coli
Experimental details: qHTS fluorescence FDH-coupled JMJD2E demethylase assay
Assay type: biochemical
Test parameters: Table S1; unit not in table, from Figure 2; read-out: qHTS Data: jmjd2e IC50
So basically, the class depends on measured IC50, and the ranges are 1 (below 3 µM), 2 (3 µM to below 8 µM), 3 (8 µM or more)

# bin label for COc1ccc(N2C(=O)CC(Sc3ncn[nH]3)C2=O)c(OC)c1 (stereo not shown) 1

# bin label for O=C(CC1Sc2ncnn2C1=O)Nc1ccc(Br)cc1 (stereo not shown) 1

# bin label for "O=[N+]([O-])c1ccc(O)c(/C=N/Nc2ccc(Cl)nn2)c1" 2

# bin label for Cc1ccnc(NC(c2cccnc2)c2ccc3cccnc3c2O)c1 (stereo not shown) 2

# bin label for "N#C/C(=C\c1cc(O)c(O)c(O)c1)C(N)=O" 1

# bin label for Cc1ccc(N2C(=O)CC(Sc3ncn[nH]3)C2=O)cc1 (stereo not shown) 1

# bin label for "CC(C)c1ccccc1NC(=O)CNCCc1ccc(C(F)(F)F)cc1.O=C(O)C(=O)O" 2

# bin label for "O=C(O)c1cccc(C(=O)O)n1" 3

# bin label for "COC(=O)c1ccc(=O)c2nc3/c(=C/O)c(O)cc(=O)c3[nH]c12" 3

# bin label for "COC(=O)c1cc(=O)c(O)c2c(O)c(O)ccc2c1" 3

# bin label for "C[C@@H]1Cc2c(O)c(O)cc(O)c2C(=O)O1" 1

# bin label for "Oc1ccc(CNc2ccccc2)c2cccnc12" 3

# bin label for "CCOc1cc(CNc2ccc(N3CCCCC3)cc2)cc(Br)c1OCC(=O)NC(C)(C)C" 2

# bin label for "Oc1ccc(NCc2ccccc2OCc2ccccc2F)cc1" 2

# bin label for "O=C(O)c1cc(O)c(O)c(O)c1" 1

# bin label for "CN1CCN(Cc2cc(COCc3ccccc3)c3cccnc3c2O)CC1" 3

# bin label for "CCOc1c(Cl)cc(CNc2ccc(N3CCCC3)cc2)cc1OC" 3

# bin label for O=C1C=CC2=C3c4cc(O)c(O)cc4CC3(O)COC2=C1O (stereo not shown) 2

# bin label for NCC(O)c1ccc(O)c(O)c1.O=C(O)C(O)C(O)C(=O)O (stereo not shown) 3

# bin label for Oc1cc2c(cc1O)C1c3ccc(O)c(O)c3OCC1(O)C2 (stereo not shown) 1

# bin label for CN(C)C1C(=O)C(C(N)=O)=C(O)[C@@]2(O)C(=O)C3=C(O)c4c(O)cccc4[C@@](C)(O)C3CC12.Cl (stereo partly shown) 1

# bin label for "C(=N\Nc1nc(-c2ccccn2)nc2ccccc12)/c1ccccc1" 3

# bin label for NC(Cc1cc(O)c(O)cc1O)C(=O)O (stereo not shown) 3

# bin label for "O=C(NC(=S)NNC(=O)c1ccccc1O)c1ccco1" 2

# bin label for O=C(CC1Sc2ncnn2C1=O)Nc1ccc(Cl)cc1 (stereo not shown) 1

# bin label for Oc1c(C(Nc2nccs2)c2ccc(C(F)(F)F)cc2)ccc2cccnc12 (stereo not shown) 2

# bin label for CC(C)C1C(=O)C(C(N)=O)=C(O)[C@@]2(O)C(=O)C3=C(O)c4c(O)ccc(N(C)C)c4C[C@H]3C[C@@H]12.Cl (stereo partly shown) 3

# bin label for "O=c1cc2c(=O)oc3cc(O)c(O)oc3c2c(O)c1O" 2

# bin label for "C[C@H](N)[C@H](O)c1ccc(O)c(O)c1" 2

# bin label for O=C(OCC1OC(OC(=O)c2cc(O)c(O)c(OC(=O)c3cc(O)c(O)c(O)c3)c2)[C@@H](OC(=O)c2cc(O)c(O)c(OC(=O)c3cc(O)c(O)c(O)c3)c2)C(OC(=O)c2cc(O)c(O)c(OC(=O)c3cc(O)c(O)c(O)c3)c2)C1OC(=O)c1cc(O)c(O)c(OC(=O)c2cc(O)c(O)c(O)c2)c1)c1cc(O)c(O)c(OC(=O)c2cc(O)c(O)c(O)c2)c1 (stereo partly shown) 1
